System: A. baumannii AB5075
Experiment: MIC by broth microdilution (CLSI) against A. baumannii AB5075
Format: cell-based, Acinetobacter baumannii
Conditions: Acinetobacter baumannii, AB5075; broth microdilution, CAMHB, 37° C., 18-20 hours; read-out: A. baumannii AB5075 MIC
Please respond with reported MIC for every item in the list.
One number for each entry, in µg/mL.

Sample records with MIC:
[[record]]
compound_string = "C/C(=N\\NC(=N)N)c1ccc(SCC2CCC2)cc1"
quantity_name = "MIC"
test_value = 16

[[record]]
compound_string = "C/C(=N\\NC(=N)N)c1ccc(SCc2ccccc2)cc1"
quantity_name = "MIC"
test_value = 16

[[record]]
compound_string = "C=CCCSc1ccc(/C(C)=N/NC(=N)N)cc1"
quantity_name = "MIC"
test_value = 32

[[record]]
compound_string = "CCCCCSc1ccc(/C(C)=N/NC(=N)N)cc1"
quantity_name = "MIC"
test_value = 16

[[record]]
compound_string = "CCCCCCSc1ccc(/C(C)=N/NC(=N)N)cc1"
quantity_name = "MIC"
test_value = 4


Field MIC (entry CCCCCCCCCSc1ccc(/C(C)=N/NC(=N)N)cc1 ) reads 16

----------
Test system: MRSA USA300
Assay: MIC by broth microdilution (CLSI) against MRSA USA300
Type: cell-based, Staphylococcus aureus
Conditions: Staphylococcus aureus; broth microdilution, CAMHB, 37° C., 18-20 hours; read-out: MRSA USA300 MIC
Quantity Name: MIC (µg/mL)
Give bare numbers, in µg/mL.

Sample records with MIC:
[[record]]
compound_string = "C=CCCSc1ccc(/C(C)=N/NC(=N)N)cc1"
units = "µg/mL"
test_value = 32

[[record]]
compound_string = "CCCCCCSc1ccc(/C(C)=N/NC(=N)N)cc1"
units = "µg/mL"
test_value = 0.5

[[record]]
compound_string = "CCCCCCCCCSc1ccc(/C(C)=N/NC(=N)N)cc1"
units = "µg/mL"
test_value = 2

[[record]]
compound_string = "C/C(=N\\NC(=N)N)c1ccc(SCc2ccccc2)cc1"
units = "µg/mL"
test_value = 4

[[record]]
compound_string = "CCCCCCCCSc1ccc(/C(C)=N/NC(=N)N)cc1"
units = "µg/mL"
test_value = 1


Field MIC (entry CCCCCCCSc1ccc(/C(C)=N/NC(=N)N)cc1 ) reads 0.5

----------
Please respond with reported MIC for every item in the list.
System: A. baumannii AB5075
Test: MIC by broth microdilution (CLSI) against A. baumannii AB5075
Assay type: cell-based, Acinetobacter baumannii
Conditions: Acinetobacter baumannii, AB5075; broth microdilution, CAMHB, 37° C., 18-20 hours; read-out: A. baumannii AB5075 MIC
Excerpt: Table 1 summarizes the antibacterial activity of certain compounds, according to the present invention, as calculated by minimum inhibitory concentration (MIC) values against one multidrug resistant gram-positive strain (MRSA USA300), and one multidrug resistant gram-negative (Acinetobacter baumannii AB5075). The later bacterial strain is listed at the top of the WHO's critical priority list for antibiotic development. […]
One number for each entry, in µg/mL.

Quick batch: MIC for everything below.
1. CCCCCCCCSc1ccc(/C(C)=N/NC(=N)N)cc1
2. CCCCCCCSc1ccc(/C(C)=N/NC(=N)N)cc1
3. CCCCSc1ccc(/C(C)=N/NC(=N)N)cc1
4. C/C(=N\NC(=N)N)c1ccc(SCC(C)C)cc1
5. C/C(=N\NC(=N)N)c1ccc(SC2CCCC2)cc1
6. C/C(=N\NC(=N)N)c1ccc(SCCc2ccccc2)cc1
7. C/C(=N\NC(=N)N)c1ccc(SCCC(C)C)cc1

1: 8; 2: 1; 3: 16; 4: 16; 5: 16; 6: 8; 7: 8

Case C/C(=N\NC(=N)N)c1ccc(SC2CCCCC2)cc1 , A. baumannii AB5075, MIC recorded as 8

Source of measurements: patent US20240383846A1
